Record form. Attribute: EC50. Fill in for each entry.
target system: UniProtKB P0C6X1
Sequence (P0C6X1 2966-3267 limits assumed): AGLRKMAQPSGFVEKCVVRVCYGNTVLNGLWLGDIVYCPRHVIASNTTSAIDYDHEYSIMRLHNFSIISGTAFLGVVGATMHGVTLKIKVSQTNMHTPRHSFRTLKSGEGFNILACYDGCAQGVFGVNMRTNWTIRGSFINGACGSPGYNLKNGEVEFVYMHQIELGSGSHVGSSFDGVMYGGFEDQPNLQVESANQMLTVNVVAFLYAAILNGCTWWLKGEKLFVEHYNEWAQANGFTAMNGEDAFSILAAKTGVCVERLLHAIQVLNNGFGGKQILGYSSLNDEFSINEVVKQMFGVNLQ
assay notes: 229E Mpro activity
Assay type: biochemical
study conditions: read-out: 229E Mpro EC50

Query: GET /values?readout=EC50&item= CC(C)(C)OC(=O)Nc1cccn([C@@H](CC2CC2)C(=O)N[C@H](C#N)C[C@@H]2CCNC2=O)c1=O (single isomer, unassigned) [505 (Isomer 2)]
Result: > 30 µM

Query: GET /values?readout=EC50&item= N#C[C@H](C[C@@H]1CCNC1=O)NC(=O)[C@H](CC1CC1)N1CCC2(CCCN2)C1=O (stereo partly drawn)
Result: 10 to 30 µM

Query: GET /values?readout=EC50&item= COc1cccc2[nH]c(C(=O)N3CC4(CCCCC4)CC3C(=O)N[C@H](C#N)CC3CCC(C)(C)NC3=O)cc12 (single isomer, unassigned) [1111 (Isomer 3)]
Result: 2 to 10 µM

---

Record form. Attribute: pIC50. Fill in for each entry.
target system: SARS-CoV2 Mpro (Severe acute respiratory syndrome coronavirus 2 (2019-nCoV) (SARS-CoV-2))
assay notes: COVID-19 (SARS-CoV2) Mpro enzymatic assay
Type: biochemical
study conditions: 25 nM Mpro, 25 μM substrate
pIC50: −log10 of the molar value.

Query: GET /values?readout=pIC50&item= CC1(C)CC(C[C@@H](C#N)NC(=O)C2CC3(CCCCC3)CN2C(=O)c2cc3cccc(Cl)c3[nH]2)C(=O)N1 (single isomer, unassigned) [930 (Isomer 5)]
Result: 4.52 to 5.00

Query: GET /values?readout=pIC50&item= COc1ccc(Cl)c2[nH]c(C(=O)N3CC4(CCCCC4)CC3C(=O)NC(C#N)C[C@@H]3CCCNC3=O)cc12 (single isomer, unassigned) [902 (Isomer 2)]
Result: 5.00 to 5.70

Query: GET /values?readout=pIC50&item= COc1ccc2[nH]c(C(=O)N3CC4(CCC4)CC3C(=O)N[C@H](C#N)C[C@@H]3CCNC3=O)cc2c1Cl (single isomer, unassigned) [886 (Isomer 2)]
Result: > 5.70

Query: GET /values?readout=pIC50&item= N#C[C@H](C[C@@H]1CCCNC1=O)NC(=O)C1CC2(CCC2)CN1C(=O)c1cc2ccc(Cl)cc2[nH]1 (single isomer, unassigned) [791 (Isomer 1)]
Result: < 4.52

---

target system: SARS-CoV2 Mpro (Severe acute respiratory syndrome coronavirus 2 (2019-nCoV) (SARS-CoV-2), UniProt P0DTD1)
pIC50: −log10 of the molar value.
measurement kind: pIC50

Query: GET /values?readout=pIC50&item= COc1cccc2[nH]c(C(=O)N3CC4(CCC(F)(F)CC4)CC3C(=O)N[C@H](C#N)C[C@@H]3CCCNC3=O)cc12 (single isomer, unassigned) [982 (Isomer 2)]
Result: < 4.52

Query: GET /values?readout=pIC50&item= "COc1cccc2[nH]c(C(=O)N3CC[C@H](c4ccccc4)[C@H]3C(=O)N[C@H](C#N)C[C@@H]3CCNC3=O)cc12"
Result: 5.00 to 5.70

Query: GET /values?readout=pIC50&item= N#C[C@@]1(NC(=O)[C@H](CC2CC2)NC(=O)OCc2ccccc2)C[C@@H]2CC[C@H]1[C@@H]1C(=O)NC(=O)[C@H]21 (single isomer, unassigned) [495 (Isomer 2)]
Result: < 4.52

Query: GET /values?readout=pIC50&item= N#C[C@H](C[C@@H]1CCCNC1=O)NC(=O)C1CC2(CN1C(=O)c1cc3cccc(Cl)c3[nH]1)CC(F)(F)C2 (single isomer, unassigned) [743 (Isomer 2)]
Result: > 5.70

Query: GET /values?readout=pIC50&item= CC1(C)CC(C[C@@H](C#N)NC(=O)[C@H](CC2CC2)NC(=O)c2cc3cccc(Cl)c3[nH]2)C(=O)N1 (single isomer, unassigned) [1053 (Isomer 4)]
Result: > 5.70
